We begin with a simple list: items and their reported shrunken log2 fold change.
tested on: Escherichia coli TOP10; assay: shrunken log2 fold change of peptide-encoding DNA abundance (4.5 h post-induction vs induction); higher = less antimicrobial activity (less host growth inhibition); conditions: time post-induction: 4.5 h; library: site-saturation at positions 5, 18, 19, 20;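 note: peptides expressed intracellularly from a pBAD plasmid library in pooled LB shake-flask culture, induced with 0.3% L-arabinose, DNA abundance read by NGS, three biological replicates, DESeq2 with apeglm shrinkage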

Use these answered entries as a reference point.
RRIRRRPPRLPRPRPRPHFFPRP: 0.149
RRIRIRPPRLPRPRPRPPQHPRP: -0.107
RRIRTRPPRLPRPRPRPFYCPRP: -0.505
RRIRTRPPRLPRPRPRPLTIPRP: -0.315
RRIRARPPRLPRPRPRPKTSPRP: 0.331
RRIRNRPPRLPRPRPRPYMRPRP: -0.597
RRIRLRPPRLPRPRPRPPSAPRP: 0.654
RRIRKRPPRLPRPRPRPMNWPRP: 0.134

Qu. Under Escherichia coli TOP10: shrunken log2 fold change value of `RRIRGRPPRLPRPRPRPKQFPRP` ?
Ans. 0.566

Qu. Same read-out for `RRIRQRPPRLPRPRPRPSADPRP` ?
Ans. 0.354

Qu. Same read-out for `RRIRARPPRLPRPRPRPHNYPRP` ?
Ans. -0.303

Qu. Same read-out for `RRIRPRPPRLPRPRPRPGPEPRP` ?
Ans. 0.213

Qu. Same read-out for `RRIRCRPPRLPRPRPRPIRFPRP` ?
Ans. -0.27

Qu. Same read-out for `RRIRFRPPRLPRPRPRPRYGPRP` ?
Ans. -0.299

Qu. Same read-out for `RRIRIRPPRLPRPRPRPHETPRP` ?
Ans. 0.0188

Qu. Same read-out for `RRIRIRPPRLPRPRPRPATAPRP` ?
Ans. 0.0897

Qu. Same read-out for `RRIRLRPPRLPRPRPRPLDYPRP` ?
Ans. -0.157

Qu. Same read-out for `RRIRTRPPRLPRPRPRPTDQPRP` ?
Ans. -0.143

Qu. Same read-out for `RRIRWRPPRLPRPRPRPGSTPRP` ?
Ans. 0.161

Qu. Same read-out for `RRIRKRPPRLPRPRPRPTMMPRP` ?
Ans. 0.316

Qu. Same read-out for `RRIRWRPPRLPRPRPRPQQLPRP` ?
Ans. -0.289

Qu. Same read-out for `RRIRSRPPRLPRPRPRPNGEPRP` ?
Ans. 0.0431

Qu. Same read-out for `RRIRLRPPRLPRPRPRPQIFPRP` ?
Ans. -0.165

These data points were gathered from the supplement of paper PMC9112550.
